Target: Glucose-6-phosphate 1-dehydrogenase (Homo sapiens, UniProt P11413)
Sequence (P11413 whole entry): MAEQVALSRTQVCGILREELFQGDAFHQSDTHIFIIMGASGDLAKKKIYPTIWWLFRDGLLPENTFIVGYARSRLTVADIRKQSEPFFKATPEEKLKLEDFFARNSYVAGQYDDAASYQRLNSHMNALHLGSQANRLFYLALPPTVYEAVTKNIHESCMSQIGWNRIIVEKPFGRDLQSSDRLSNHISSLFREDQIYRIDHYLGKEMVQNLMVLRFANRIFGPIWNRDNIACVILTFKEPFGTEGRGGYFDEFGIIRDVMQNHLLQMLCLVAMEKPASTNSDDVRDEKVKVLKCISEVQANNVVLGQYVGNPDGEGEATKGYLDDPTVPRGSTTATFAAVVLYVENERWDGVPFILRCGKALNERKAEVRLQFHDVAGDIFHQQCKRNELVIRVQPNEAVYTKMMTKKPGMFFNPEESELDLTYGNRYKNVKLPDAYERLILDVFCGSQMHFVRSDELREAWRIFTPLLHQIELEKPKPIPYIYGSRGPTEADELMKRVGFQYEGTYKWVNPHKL
Assay: Inhibition of human recombinant N-terminal His tagged G6PD expressed in Escherichia coli JM109 (DE3) cells assessed as production of NADPH after 30 mins by Amplite fluorimetric assay
Experimental endpoint: pIC50
The scale used: pIC50 is minus the common logarithm of the concentration in molar units.

Request - read-out pIC50 | tested on Glucose-6-phosphate 1-dehydrogenase (Homo sapiens, UniProt P11413) | molecule C[C@]12CC[C@H](O)C[C@@H]1CC[C@@H]1[C@@H]2CC[C@]2(C)[C@@H](C(=O)CCl)CC[C@@H]12
5.03

Field entry: CC(=O)[C@H]1CC[C@H]2[C@@H]3CC[C@H]4C[C@@H](NS(=O)(=O)c5ccccc5)CC[C@]4(C)[C@H]3CC[C@]12C
4.69

Field entry: C[C@]12CC[C@H](NS(C)(=O)=O)C[C@@H]1CC[C@@H]1[C@@H]2CC[C@]2(C)C(=O)CC[C@@H]12
5.18

Field entry: C[C@]12CC[C@H](O)CC1=CC[C@@H]1[C@@H]2CC[C@]2(C)C(=O)CC[C@@H]12 [PRASTERONE]
4.95

Field entry: C[C@]12CC[C@H]3[C@@H](CC=C4C[C@@H](O)CC[C@@]43C)[C@@H]1CC[C@@H]2C(=O)CO
5.28

Field entry: CC(=O)[C@@]1(O)CC[C@H]2[C@@H]3CC[C@H]4C[C@@H](O)CC[C@]4(C)[C@H]3C(=O)C[C@@]21C
4.33

Field entry: C[C@]12CC[C@H](NS(N)(=O)=O)C[C@@H]1CC[C@@H]1[C@@H]2CC[C@]2(C)C(=O)CC[C@@H]12
5.92

Field entry: CC(=O)[C@H]1CC[C@H]2[C@@H]3CC[C@H]4C[C@@H](NS(N)(=O)=O)CC[C@]4(C)[C@H]3CC[C@]12C
5.70

Field entry: CC(=O)[C@H]1CC[C@H]2[C@@H]3CC[C@H]4C[C@@H](O)CC[C@]4(C)[C@H]3CC[C@]12C [SEPRANOLONE]
5.37

###

Answer each item with its documented pIC50.
Target: Glucose-6-phosphate 1-dehydrogenase (Homo sapiens, UniProt P11413)
Assay: Inhibition of human recombinant N-terminal His tagged G6PD expressed in Escherichia coli JM109 (DE3) cells assessed as production of NADPH after 30 mins by Amplite fluorimetric assay
The scale used: pIC50 is minus the common logarithm of the concentration in molar units.

I am curious: what pIC50 value has been reported for C[C@]12CC[C@H](O)C[C@@H]1CC[C@H]1[C@@H]3CC[C@H](C(=O)CO)[C@@]3(C)CC(=O)[C@@H]12 ?
5.20

Field entry: C[C@]12CC[C@H](O)C[C@@H]1CC[C@@H]1[C@@H]2CC[C@@]2(C)[C@H]1CC[C@]2(O)C(=O)CO
5.28

Field entry: C[C@]12CC[C@H](O)CC1=CC[C@@H]1[C@@H]2CC[C@]2(C)C(=O)[C@H](O)C[C@@H]12
4.80

Field entry: CC(=O)N[C@H]1CC[C@@]2(C)[C@@H](CC[C@@H]3[C@@H]2CC[C@]2(C)C(=O)CC[C@@H]32)C1
3.89

Field entry: C[C@]12CC[C@H](NC(N)=O)C[C@@H]1CC[C@@H]1[C@@H]2CC[C@]2(C)C(=O)CC[C@@H]12
5.30

Field entry: C[C@]12CC[C@@H](O)C[C@@H]1CC[C@@H]1[C@@H]2CC[C@]2(C)[C@@H](C(=O)CO)CC[C@@H]12
4.50

Field entry: CCS(=O)(=O)N[C@H]1CC[C@@]2(C)[C@@H](CC[C@@H]3[C@@H]2CC[C@]2(C)C(=O)CC[C@@H]32)C1
4.15
